# assayText: Solubility of compound by chemiluminescent nitrogen detection assay
# Format: physicochemical
measurementKind: solubility kinetic

Answered examples (5):
# query: solubility kinetic of entry `O=CN(O)C[C@@H](CC1CCCC1)C(=O)N1NCCC[C@H]1C(=O)N1CCCCC1` > 739 µM

# query: solubility kinetic of entry `O=CN(O)C[C@@H](CC1CCCC1)C(=O)N1NCCC[C@H]1C(=O)Nc1ccncn1` > 464 µM

# query: solubility kinetic of entry `Cc1ccc(NC(=O)[C@@H]2CCCNN2C(=O)[C@H](CC2CCCC2)CN(O)C=O)nc1` > 565 µM

# query: solubility kinetic of entry `CN1CCN(c2cncc(NC(=O)[C@@H]3CCCNN3C(=O)[C@H](CC3CCCC3)CN(O)C=O)n2)CC1` > 359 µM

# query: solubility kinetic of entry `O=CN(O)C[C@@H](CC1CCCC1)C(=O)N1NCCC[C@H]1C(=O)Nc1cnccn1` > 586 µM

Continuing:
# query: solubility kinetic of entry `CN(C)c1cccc(NC(=O)[C@@H]2CCCNN2C(=O)[C@H](CC2CCCC2)CN(O)C=O)n1` > 364 µM

# query: solubility kinetic of entry `CCc1nnc(NC(=O)[C@@H]2CCCNN2C(=O)[C@H](CC2CCCC2)CN(O)C=O)s1` 530 µM

# query: solubility kinetic of entry `O=CN(O)C[C@@H](CC1CCCC1)C(=O)N1NCCC[C@H]1C(=O)Nc1ccccn1` > 463 µM

All values here come from ChEMBL document CHEMBL4433235.
